Origin of measurements: PubChem BioAssay AID2417

Assay: High Content Assay for Compounds that inhibit the Assembly of the Perinucleolar Compartment
Details: PC3M PTB-GFP, PNC prevalence imaging, 16 h; at 10 µM; stronger effect = lower value
About 4,300 (3.1%) of roughly 140,000 compounds were called active. Roughly 21% stayed inconclusive and do not appear here. The sample holds actives, similar compounds and a random draw of the others, so the mix is not that of the screen.
Entries and their measured activity change (PNC), negative = inhibition follow.
Provide the reading as a plain figure in %.

Examples from the recorded data:
compound	unitName	reportedMeasurement
COc1cc(NC(=S)NNC(=O)CC(C)C)c(OC)cc1Cl	%	20.5
CCOc1ccc(NC(=O)c2ccc(CSc3nnnn3C)cc2)cc1	%	-8.75
COc1ccc(Br)cc1CN(C)CC(=O)Nc1cc(Cl)cc(Cl)c1	%	5.92
COc1ccc(C(=O)Nc2ccc(S(=O)(=O)Nc3onc(C)c3C)cc2)cc1OC	%	85.8
CCC1(CC)Cc2ccccc2-c2nc3ccccc3c(=O)n21	%	35.3
CCOC(=O)c1c(NC(C)=O)sc2c(O)c(Br)ccc12	%	-80.8

We now examine a further compound.
Input: Quick one: activity change (PNC), negative = inhibition of CCOC(=O)C(C)Sc1nc2ccccc2c(=O)n1CC1CCCCC1 (stereo not given) ?
Output: 0.699

* * *

Assay: High Content Assay for Compounds that inhibit the Assembly of the Perinucleolar Compartment;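 also: plate controls were DMSO wells for no effect and camptothecin positive control wells for full effect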
Conditions: PC3M PTB-GFP, PNC prevalence imaging, 16 h; at 10 µM; stronger effect = lower value
Screen size: about 140,000 compounds; about 4,300 (3.1%) were called active. Not shown: some 21% with an inconclusive outcome. The entries come from a sample that favours actives as a whole.
metric: activity change (PNC), negative = inhibition (%)
Provide the reading as a plain figure in %.

Examples from the recorded data:
compound	reportedMeasurement
CCNS(=O)(=O)c1ccc(NC(=O)Nc2cccc(C(F)(F)F)c2)cc1	-8.69
Cc1cccc(C(=O)NCC(=O)OCC(=O)N2CC3(C)CC2CC(C)(C)C3)c1 (stereo not drawn)	-3.76
Cc1nn(Cc2ccc(Cl)cc2)c(Cl)c1/C=N/NC(=O)c1cccnc1	35.8
CC(C)C[C@H](NC(=O)Nc1cccc(C(F)(F)F)c1)C(=O)O	-100
O=C(NCCN=C1NS(=O)(=O)c2ccccc21)c1ccc(S(=O)(=O)N2CCOCC2)cc1	-5.59

Input: Quick one: activity change (PNC), negative = inhibition of "O=C(CNCCO)NC12CC3CC(CC(C3)C1)C2" ?
Output: 20.6

Input: Quick one: activity change (PNC), negative = inhibition of COc1ccccc1C(=O)N1CC2(C)CC1CC(C)(C)C2 (stereo not drawn) ?
Output: -20.8

Input: Quick one: activity change (PNC), negative = inhibition of "Cc1ccccc1C1=NC(C(F)(F)F)(C(F)(F)F)c2c(n(-c3ccc(F)cc3)c(=O)[nH]c2=O)N1" ?
Output: -9.65

Input: Quick one: activity change (PNC), negative = inhibition of CCOC1CCCCC1NS(=O)(=O)c1ccc(Cl)cc1 (stereo not drawn) ?
Output: 21.4

Input: Quick one: activity change (PNC), negative = inhibition of "CSc1ccccc1NC(=O)c1cc(C2CC2)on1" ?
Output: -108

Input: Quick one: activity change (PNC), negative = inhibition of "O=C(Cc1ccccc1)Nc1cccc(C(=O)N/N=C/c2ccco2)c1" ?
Output: -20.1

* * *

Experiment: High Content Assay for Compounds that inhibit the Assembly of the Perinucleolar Compartment;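 also: plate controls were DMSO wells for no effect and camptothecin positive control wells for full effect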
Conditions: PC3M PTB-GFP, PNC prevalence imaging, 16 h; at 10 µM; stronger effect = lower value
Hit rate of the full screen: of about 140,000 compounds, about 4,300 (3.1%) were called active. Not shown: some 21% with an inconclusive outcome. The sample holds actives, similar compounds and a random draw of the others, so the mix is not that of the screen.
metric: activity change (PNC), negative = inhibition (%)
Provide the reading as a plain figure in %.

Examples from the recorded data:
molecule	unitName	reportedMeasurement
CC(=O)N/C(=C/c1ccc(Cl)cc1)C(=O)NCCc1c[nH]c2ccccc12	%	19.3
COc1ccnc(Oc2ccccc2)n1	%	-12.4
COc1ccc(C(=O)NNC(=S)NC(=O)c2ccccc2[N+](=O)[O-])cc1	%	-4
CC(Sc1nnc2c(n1)C1CCC2(C)C1(C)C)C(=O)Nc1ccccc1 (stereo unspecified)	%	11.5
Cc1ccc(Oc2cc(NC(=O)CCCn3nc(C)c([N+](=O)[O-])c3C)cc([N+](=O)[O-])c2)cc1	%	5
COCCCN(C(=O)Cn1ncc2c(=O)oc3ccc(C)cc3c21)C(C)c1ccncc1 (stereo unspecified)	%	3.72
CCN(CC(=O)NCCc1ccccc1)S(=O)(=O)c1ccc(C)cc1	%	-0.956
CCCCN1C(=O)c2ccc(C(=O)Nc3ccc(S(=O)(=O)N(C)C)cc3)cc2C1=O	%	-17.6

Input: Quick one: activity change (PNC), negative = inhibition of COCCCN(C(=S)Nc1c(C)cc(C)cc1C)C(C)c1ccncc1 (stereo unspecified) ?
Output: -82.2

Input: Quick one: activity change (PNC), negative = inhibition of "Cc1ccc(NN=C2C(=O)OC(C)(C)OC2=O)c(C)c1" ?
Output: 57.8

Input: Quick one: activity change (PNC), negative = inhibition of CCOc1ccc(NC(=S)N2CCC(N(C)CC3CCCO3)CC2)cc1 (stereo unspecified) ?
Output: 0.566

* * *

Test: High Content Assay for Compounds that inhibit the Assembly of the Perinucleolar Compartment;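 also: plate controls were DMSO wells for no effect and camptothecin positive control wells for full effect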
Settings: PC3M PTB-GFP, PNC prevalence imaging, 16 h; at 10 µM; stronger effect = lower value
Out of some 140,000 compounds screened, about 4,300 (3.1%) were called active. Not shown: some 21% with an inconclusive outcome. What follows is part of a selection rich in actives, with near analogues and random picks from the rest.
Entries and their measured activity change (PNC), negative = inhibition follow.
Provide the reading as a plain figure in %.

Examples from the recorded data:
compound	reportedMeasurement
COc1ccc(-n2c(C)cc(C(=O)COC(=O)c3cc(OC)c(OC)cc3NC(=O)c3cccs3)c2C)cc1	173
c1ccc(-c2nnc(SCc3nc4ccccc4[nH]3)o2)cc1	25.5
O=C1C2C3C=CC(C4CC34)C2C(=O)N1c1nccs1 (stereo not drawn)	23.7
CCCCCOc1ccc(CSC2=NCCN2)cc1[N+](=O)[O-]	-84.7
Clc1ccc(CSc2nnc(/C=C/c3ccccc3)o2)c(Cl)c1	-87.5

Input: Quick one: activity change (PNC), negative = inhibition of "O=C(CN1C(=O)NC2(CCCCCC2)C1=O)NCc1cccs1" ?
Output: -4.41

Input: Quick one: activity change (PNC), negative = inhibition of "Cc1ccc(NC(=O)c2cccs2)cc1S(=O)(=O)N(C)C" ?
Output: 22.8

Input: Quick one: activity change (PNC), negative = inhibition of "CCCn1c(C)cc(C(=O)COC(=O)c2c(C)nn(-c3ccccc3)c2C)c1C" ?
Output: -22.8

Input: Quick one: activity change (PNC), negative = inhibition of "CCO/N=C(/C)c1c(O)cc(-c2ccccc2)n(-c2ccccc2)c1=O" ?
Output: 36.7

Input: Quick one: activity change (PNC), negative = inhibition of "Cc1ccnc(NS(=O)(=O)c2ccc(NC(=O)c3ccc(S(=O)(=O)N4CCOCC4)cc3)cc2)n1" ?
Output: -19.3

Input: Quick one: activity change (PNC), negative = inhibition of "Cc1cc(C(=O)COC(=O)c2cccs2)c(C)n1-c1c(C)n(C)n(-c2ccccc2)c1=O" ?
Output: -127

Input: Quick one: activity change (PNC), negative = inhibition of "Cc1ccc(S(=O)(=O)N(C)C)cc1NC(=O)/C=C/c1cccs1" ?
Output: -119

Input: Quick one: activity change (PNC), negative = inhibition of "CC(C)(C)c1ccc(/C=C/C(=O)Nc2ncccn2)cc1" ?
Output: 15.2

Input: Quick one: activity change (PNC), negative = inhibition of "O=C(COC(=O)c1cc(=O)[nH]c2ccccc12)Nc1nc(-c2cccc(Br)c2)cs1" ?
Output: 21.6

* * *

Assay: High Content Assay for Compounds that inhibit the Assembly of the Perinucleolar Compartment;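 also: plate controls were DMSO wells for no effect and camptothecin positive control wells for full effect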
Settings: PC3M PTB-GFP, PNC prevalence imaging, 16 h; at 10 µM; stronger effect = lower value
Hit rate of the full screen: of about 140,000 compounds, about 4,300 (3.1%) were called active. Roughly 21% stayed inconclusive and do not appear here. Many of the other results were omitted from the sample, so actives are more common in it than they were.
metric: activity change (PNC), negative = inhibition (%)
Provide the reading as a plain figure in %.

Examples from the recorded data:
smilesRecord	reportedMeasurement
O=[N+]([O-])c1cc(S(=O)(=O)N2CCCC2)ccc1NN=C1CCCC1	27.5
O=C(COc1ccc2oc3c(c2c1)CCCC3)Nc1ccccn1	-26.2
NC(=O)COc1ccc2c3c(c(=O)oc2c1)CCCCC3	-10.3
COc1ccccc1Nc1ncnc2c1oc1ccccc12	52.9
COc1ccc(C/C(C)=N/NC(=O)c2cc(C)oc2C)cc1	15.4

Input: Quick one: activity change (PNC), negative = inhibition of "O=C(Oc1ccccc1C(=S)N1CCCCC1)c1cc([N+](=O)[O-])cc([N+](=O)[O-])c1" ?
Output: -100

Input: Quick one: activity change (PNC), negative = inhibition of "O=C(CNS(=O)(=O)c1ccccc1)NCC(=O)OCc1ccccc1F" ?
Output: 26

Input: Quick one: activity change (PNC), negative = inhibition of "O=C(CSCc1ccc(Cl)cc1)N1CCCCC1" ?
Output: 0.451
